- assayed.target: human recombinant adrenergic α2B receptor (Homo sapiens, UniProt P18089)
- Construct: expressed in transfected cells; host or cells: CHO-K1
- Sequence (P18089 whole entry): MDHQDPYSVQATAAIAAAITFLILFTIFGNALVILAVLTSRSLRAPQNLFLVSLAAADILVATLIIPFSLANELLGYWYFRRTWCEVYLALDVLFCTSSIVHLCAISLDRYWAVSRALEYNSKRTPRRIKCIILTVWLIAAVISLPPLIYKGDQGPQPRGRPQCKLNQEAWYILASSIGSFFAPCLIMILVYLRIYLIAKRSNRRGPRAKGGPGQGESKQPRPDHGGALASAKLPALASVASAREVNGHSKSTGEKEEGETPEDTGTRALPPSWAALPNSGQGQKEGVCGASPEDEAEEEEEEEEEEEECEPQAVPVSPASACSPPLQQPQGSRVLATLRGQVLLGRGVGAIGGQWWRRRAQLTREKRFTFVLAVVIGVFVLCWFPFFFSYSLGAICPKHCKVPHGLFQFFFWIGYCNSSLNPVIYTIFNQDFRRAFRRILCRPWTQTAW
- assay.remarks: Radioligand binding, adrenergic α2B receptor ([3H]Rauwolscine)
- condition.set: 0.1 μM compound, CHO-K1 cells, read-out: Percentage inhibition of ligand binding, Adrenergic α2B
- Method: To evaluate in radioligand binding assays the activity of compounds, human recombinant adrenergic α2B receptor expressed in Chinese hamster ovary (CHO) K1 cells (Uhlen, S. et al, Eur. J. Pharmacol. 343(1):93, 1998) in a modified Tris-HCl buffer (50 mM Tris-HCl, pH 7.4, 12.5 mM MgCl2, 1 mM EDTA, 0.2% BSA) was used. […] Receptor proteins were filtered and washed, the filters were then counted to determine [^3H]Rauwolscine specifically bound. […]
Rule: label 1 for inhibition at 0.1 µM not less than 90%, label 0 for anything less.

{"structure.as.smiles": "Cc1ccc2c(c1)c1c(n2-c2cscc2C(=O)N(C)C)CCN(C)C1", "assayed.target": "human recombinant adrenergic α2B receptor (Homo sapiens, UniProt P18089)", "category.label": "label 0"}
{"structure.as.smiles": "Cc1ccc2c(c1)c1c(n2-c2cccc3ccncc23)CCN(C)C1", "assayed.target": "human recombinant adrenergic α2B receptor (Homo sapiens, UniProt P18089)", "category.label": "label 0"}
{"structure.as.smiles": "Cc1ccc2c(c1)c1c(n2-c2ccccc2-c2cnc(N(C)C)nc2)CCN(C)C1", "assayed.target": "human recombinant adrenergic α2B receptor (Homo sapiens, UniProt P18089)", "category.label": "label 0"}

INPUT: Is inhibition at 0.1 µM at least 90%? Consider Cc1ccc2c(c1)c1c(n2-c2cccc(-c3ccc(C)nc3)c2)CCN(C)C1
OUTPUT: label 0

INPUT: Is inhibition at 0.1 µM at least 90%? Consider Cc1ccc2c(c1)c1c(n2-c2cccc(-c3cc4ccccc4s3)c2)CCN(C)C1
OUTPUT: label 0

INPUT: Is inhibition at 0.1 µM at least 90%? Consider Cc1csc(-c2cccc(-n3c4c(c5cc(C)ccc53)CN(C)CC4)c2)c1
OUTPUT: label 0

###

- assayed.target: rat adrenergic α1B receptor (Rattus norvegicus, UniProt P15823)
- Construct: rat adrenergic α1B receptor obtained from Wistar Rat liver; from tissue; host or cells: Wistar rat liver
- Sequence (P15823 whole entry): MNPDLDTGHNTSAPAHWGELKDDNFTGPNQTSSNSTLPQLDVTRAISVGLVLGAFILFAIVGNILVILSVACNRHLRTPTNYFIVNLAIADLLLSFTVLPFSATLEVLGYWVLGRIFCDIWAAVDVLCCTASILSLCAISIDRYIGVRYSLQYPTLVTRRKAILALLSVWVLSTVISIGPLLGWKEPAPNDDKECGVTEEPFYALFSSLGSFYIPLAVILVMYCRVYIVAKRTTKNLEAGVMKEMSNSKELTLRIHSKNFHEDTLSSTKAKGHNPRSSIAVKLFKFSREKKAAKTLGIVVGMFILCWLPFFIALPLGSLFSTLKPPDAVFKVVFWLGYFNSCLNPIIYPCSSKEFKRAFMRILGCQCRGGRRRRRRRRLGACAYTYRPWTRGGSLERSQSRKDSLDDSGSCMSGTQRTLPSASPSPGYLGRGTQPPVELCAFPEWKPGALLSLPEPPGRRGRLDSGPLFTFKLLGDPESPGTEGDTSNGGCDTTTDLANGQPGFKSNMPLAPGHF
- assay.remarks: Radioligand binding, adrenergic α1B receptor ([3H]Prazosin)
- condition.set: 0.1 μM compound, Wistar rat liver, read-out: Percentage inhibition of ligand binding, Adrenergic α1B
assay.endpoint: inhibition at 0.1 µM (%)
// return numeric value only (unit: %, not printed)

Example results:
{"structure.as.smiles": "Cc1cc(C)c2c(c1)c1c(n2-c2cscc2-c2ccncc2)CCN(C)C1", "display.unit": "%", "reported.value": 16}
{"structure.as.smiles": "Cc1ccc2c(c1)c1c(n2-c2cscc2-c2cccc3[nH]ncc23)CCN(C)C1", "display.unit": "%", "reported.value": 77}
{"structure.as.smiles": "Cc1ccc2c(c1)c1c(n2-c2cscc2-c2cnc(N(C)C)nc2)CCN(C)C1", "display.unit": "%", "reported.value": 43}
{"structure.as.smiles": "Cc1ccc2c(c1)c1c(n2-c2ccc3nc(C)ccc3c2)CCN(C)C1", "display.unit": "%", "reported.value": 22}
{"structure.as.smiles": "Cc1ccc2c(c1)c1c(n2-c2ccccc2-c2ccncc2)CCN(C)C1", "display.unit": "%", "reported.value": 52}

INPUT: Could you please provide reported inhibition at 0.1 µM for CNC(=O)c1cc(-n2c3c(c4cc(C)ccc42)CN(C)CC3)cs1 ? Thanks!
OUTPUT: 8

INPUT: Could you please provide reported inhibition at 0.1 µM for Cc1ccc2c(c1)c1c(n2-c2cscc2-c2ccnn2C)CCN(C)C1 ? Thanks!
OUTPUT: 72

INPUT: Could you please provide reported inhibition at 0.1 µM for Cc1ccc2c(c1)c1c(n2-c2cccc(-c3cc4ccccc4s3)c2)CCN(C)C1 ? Thanks!
OUTPUT: 10
